# Tested System: GST-Co-NF-kB (Capsaspora owczarzaki, UniProt F1ARL5 200-546)
# Sequence: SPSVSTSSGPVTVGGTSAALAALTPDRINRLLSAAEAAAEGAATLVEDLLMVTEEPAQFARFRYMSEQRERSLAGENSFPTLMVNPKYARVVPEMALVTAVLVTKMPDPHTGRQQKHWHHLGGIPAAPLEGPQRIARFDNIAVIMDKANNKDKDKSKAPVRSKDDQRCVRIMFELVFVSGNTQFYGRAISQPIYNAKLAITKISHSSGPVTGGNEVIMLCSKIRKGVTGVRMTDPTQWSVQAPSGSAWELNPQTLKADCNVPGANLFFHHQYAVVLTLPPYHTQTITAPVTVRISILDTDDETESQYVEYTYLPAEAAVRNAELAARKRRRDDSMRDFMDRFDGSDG
# Experimental Details: protein-binding microarray (PBM); PBM: ~300 nM protein, 6 mM HEPES pH 7.8, 80 mM KCl, 0.5 mM EDTA, 0.5 mM EGTA, 6% glycerol, 35 ng/ul poly-dIdC, 1% milk, 1 h, room temperature; high values mean tight binding
# Stated Conditions: dsDNA, one strand shown
Please mark true if the recorded binding signal is equal to or greater than 5 z-score, and false if it falls below.

Use the examples below as a reference point.
CCGATTAACATCAGGGGGAGGTATGATGTTAATCGGGTCTTGATTCGCTTGACGCTGCTG :: true
CCGATTAACATCAAAACTCCCCATGATGTTAATCGGGTCTTGATTCGCTTGACGCTGCTG :: true

Please tell me: is the sequence CCGATTAACATCAAAAATTTCCCTGATGTTAATCGGGTCTTGATTCGCTTGACGCTGCTG at or over 5 z-score in terms of binding signal?
true

Now the same for CCGATTAACATCAAAAATCCCTATGATGTTAATCGGGTCTTGATTCGCTTGACGCTGCTG
false

Now the same for CCGATTAACATCAGGGCGCCCCCTGATGTTAATCGGGTCTTGATTCGCTTGACGCTGCTG
false

Now the same for CCGATTAACATCAGGGGATTCACTGATGTTAATCGGGTCTTGATTCGCTTGACGCTGCTG
false

Now the same for CCGATTAACATCAGGGGCACCCCTGATGTTAATCGGGTCTTGATTCGCTTGACGCTGCTG
false

Now the same for CCGATTAACATCAGGGAGTTTACTGATGTTAATCGGGTCTTGATTCGCTTGACGCTGCTG
false

Now the same for CCGATTAACATCACCGTTTCCCCTGATGTTAATCGGGTCTTGATTCGCTTGACGCTGCTG
true

====

# Tested System: GST-Aq-NF-kB (Amphimedon queenslandica, UniProt A9Y5G7 2-389)
# Sequence: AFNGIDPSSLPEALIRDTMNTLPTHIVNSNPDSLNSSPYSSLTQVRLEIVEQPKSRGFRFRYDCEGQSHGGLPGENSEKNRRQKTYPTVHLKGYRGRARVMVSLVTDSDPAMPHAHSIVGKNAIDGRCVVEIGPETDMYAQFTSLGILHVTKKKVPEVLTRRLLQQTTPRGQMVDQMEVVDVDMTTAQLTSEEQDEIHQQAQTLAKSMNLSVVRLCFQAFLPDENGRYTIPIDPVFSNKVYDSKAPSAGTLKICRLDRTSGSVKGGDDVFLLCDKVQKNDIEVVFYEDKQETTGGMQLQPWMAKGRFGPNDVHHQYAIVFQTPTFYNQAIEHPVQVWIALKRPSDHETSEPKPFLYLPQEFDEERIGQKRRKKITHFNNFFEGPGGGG
# Experimental Details: protein-binding microarray (PBM); PBM: ~300 nM protein, 6 mM HEPES pH 7.8, 80 mM KCl, 0.5 mM EDTA, 0.5 mM EGTA, 6% glycerol, 35 ng/ul poly-dIdC, 1% milk, 1 h, room temperature; Ap Aiptasia and Nv Nematostella (sea anemones) / Co Capsaspora / Aq Amphimedon (sponge) / Dm Drosophila / Hu human; RHD is the Rel homology domain; high values mean tight binding
# Stated Conditions: dsDNA, one strand shown
Param label: returns MET when binding signal < 6 z-score, returns NOT MET otherwise, including exact equality.

CCGATTAACATCAAATTCTCCCCTGATGTTAATCGGGTCTTGATTCGCTTGACGCTGCTG :: MET
CCGATTAACATCAGCATTCCCCCTGATGTTAATCGGGTCTTGATTCGCTTGACGCTGCTG :: MET

Does CCGATTAACATCACGGGGAAATCTGATGTTAATCGGGTCTTGATTCGCTTGACGCTGCTG have binding signal strictly under 6 z-score?
NOT MET

Now the same for CCGATTAACATCAGGGGGAACCATGATGTTAATCGGGTCTTGATTCGCTTGACGCTGCTG
MET

Now the same for CCGATTAACATCAAAATTTACCATGATGTTAATCGGGTCTTGATTCGCTTGACGCTGCTG
MET

Now the same for CCGATTAACATCAGGGGCAGGGATGATGTTAATCGGGTCTTGATTCGCTTGACGCTGCTG
MET

Now the same for CCGATTAACATCACGGAGTTTCCTGATGTTAATCGGGTCTTGATTCGCTTGACGCTGCTG
MET

Now the same for CCGATTAACATCAAGGGGATTCCTGATGTTAATCGGGTCTTGATTCGCTTGACGCTGCTG
NOT MET

Now the same for CCGATTAACATCAGAACATTCCCTGATGTTAATCGGGTCTTGATTCGCTTGACGCTGCTG
MET
